B1: glmS ribozyme (parent)
chain: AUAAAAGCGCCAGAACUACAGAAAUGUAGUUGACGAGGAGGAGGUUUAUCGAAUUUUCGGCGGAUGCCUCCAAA

variants of: B1; test: self-cleavage kobs at 2500 uM GlcN6P; higher = faster cleavage; RNA array; settings: with glucosamine-6-phosphate
Fewer inactive variants are shown than the library holds.
Each entry below carries its recorded self-cleavage kobs at 2500 uM GlcN6P.
Express it in s⁻¹; write the number only.

Look up self-cleavage kobs at 2500 uM GlcN6P for this variant: AUAAAAGCGCCAGAACUACAGAAAUGUAGUUGACGAGGAGGAGGUUUAUCGAAUUACCGGCGGAUGCCUCCAAA [U56A U57C] 7.84e-05

Look up self-cleavage kobs at 2500 uM GlcN6P for this variant: AUAAAAGCGCCAGAACUACAGAAAUGUAGUUGACGAGGAAGAGGUUUAUCGAACUUUCGGCGGAUGCCUCCAAA [G40A U54C] 0.00449

Look up self-cleavage kobs at 2500 uM GlcN6P for this variant: AUAAAAGCGCCAGAAUUACAGAAAUGUAGUUGACGAGGAGGAGGUUUAUCGAAUUUUCGGCGGAUGCCACCAAA [C16U U69A] 0.00022

Look up self-cleavage kobs at 2500 uM GlcN6P for this variant: AUAAAAGCGCCAGAACUACAGAAAUGUAGUUGACGAGGAGGAGGUUCAUCGAAUUUUCGGCGGGUGCCUCCAAA [U47C A64G] 0.0019

Look up self-cleavage kobs at 2500 uM GlcN6P for this variant: AUAAAAGCGCCAGGACUACAGAAAUGUAGUUUACGAGGAGGAGGUUUAUCGAAUUUUCGGCGGAUGCCUCCAAA [A14G G32U] 0.00158

Look up self-cleavage kobs at 2500 uM GlcN6P for this variant: AUAAAAGCGCCAGAACUACAGAAAUGUAGUUAACGAGGAGGAGGUUUAUCGAAUUUUUGGCGGAUGCCUCCAAA [G32A C58U] 4.13e-05

Look up self-cleavage kobs at 2500 uM GlcN6P for this variant: AUAAAAGCGCCAGAACUACAGAAAUGUAGUUGACGAGGAGAAGGUUUAUCGGAUUUUCGGCGGAUGCCUCCAAA [G41A A52G] 7.3e-05
